Target: T1, SNTB1, Q13884
T1 sequence (Q13884 107-205, limits assumed, looked up): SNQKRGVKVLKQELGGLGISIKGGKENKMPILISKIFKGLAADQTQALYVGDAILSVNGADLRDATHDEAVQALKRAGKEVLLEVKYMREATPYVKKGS
Assay: holdup assay
Parameters: key: below the threshold = too weak to quantify, mostly under pKd 3.1 to 4
Settings: plain residues with an end cap or a label only (N-terminal biotin on a linker: ado-ado)
# pKd values compiled below
Returns: the value as a bare number; no unit string appended.

Solved entries:
1) ETQVTAETVI [TMEM225B, P0DP42] : 4.8
2) LPHGHSTTRV [NLGN4X, Q8N0W4] : 4.27

input: If you can, please state the reported pKd value of SGSLKLMTTV [DACT1, Q9NYF0] .
output: 3.64

input: Using the record for YRLAQESGLV [ABCC6, O95255] , report its pKd.
output: 3.57

input: Would you kindly share the measured pKd for MLSKQSESAI [FLVCR1, Q9Y5Y0] ?
output: 3.68

input: May I ask what pKd has been recorded for VKPQVSESKL [ACOT8, O14734] ?
output: 3.85
